# method-notes: Plasma pharmacokinetics of GDC-0853 on day 1 and day 15 (LC-MS/MS)
# Assay type: in vivo, human
# test-context: human, plasma, po, 200 mg, 200 mg (n = 9) QD, oral, plasma; read-out: Day 15 Tmax Median (range)
property-measured: Tmax (h)
Numeric only. Scale: h

Exercise: If you can, please state the reported Tmax value of `C[C@H]1CN(C2COC2)CCN1c1ccc(Nc2cc(-c3ccnc(N4CCn5c(cc6c5CC(C)(C)C6)C4=O)c3CO)cn(C)c2=O)nc1` .
Solution: 2.1

---

# method-notes: Plasma pharmacokinetics of GDC-0853 on day 1 and day 15 (LC-MS/MS)
# Type: in vivo, human
# test-context: human, plasma, po, 400 mg, 400 mg (n = 9) QD, oral, plasma; read-out: Day 15 Cmax Mean (%CV)
# Protocol: PK parameters were calculated on study days 1 and 15 based on the plasma concentration of GDC-0853 according to the model independent approach. PK (plasma) samples were collected at predose, 0.5, 1, 2, 3, 4, 6, 8, and 24 h post-dose, and analyzed at a sponsor-designated laboratory using a validated liquid chromatography–tandem mass spectrometry (LC-MS/MS) method. […]
property-measured: Cmax
# number then unit; no other words

Exercise: If you can, please state the reported Cmax value of `C[C@H]1CN(C2COC2)CCN1c1ccc(Nc2cc(-c3ccnc(N4CCn5c(cc6c5CC(C)(C)C6)C4=O)c3CO)cn(C)c2=O)nc1` .
Solution: 2100 nM

Where do these numbers come from? They come from paper PMC5849192.
